# ASSAY_TARGET: Tyrosine-protein kinase Lyn (Homo sapiens)
# ASSAY: Inhibition of LYN A (unknown origin) at 500 nM
RESULT_TYPE: inhibition (%)
Entry rule: numbers only, all in %.

Recorded inhibition for "COc1cc(CO)ccc1-c1cc2c(Nc3ccc(F)c(Cl)c3)ncnc2s1" on Tyrosine-protein kinase Lyn (Homo sapiens) was 13

Recorded inhibition for "CN(C)CCNC(=O)c1ccc(-c2cc3c(N[C@H](CO)c4ccccc4)ncnc3s2)cc1" on Tyrosine-protein kinase Lyn (Homo sapiens) was 31

Recorded inhibition for "COc1cc(C(N)=O)ccc1-c1cc2c(N[C@H](CO)c3ccccc3)ncnc2s1" on Tyrosine-protein kinase Lyn (Homo sapiens) was 47

Recorded inhibition for "COc1ccc(C(=O)NCCN(C)C)cc1-c1cc2c(N[C@H](C)c3ccccc3)ncnc2s1" on Tyrosine-protein kinase Lyn (Homo sapiens) was 57

Recorded inhibition for "C[C@@H](Nc1ncnc2sc(-c3ccc(C(=O)NCCN(C)C)cc3)cc12)c1ccccc1" on Tyrosine-protein kinase Lyn (Homo sapiens) was 38

Recorded inhibition for "C[C@@H](Nc1ncnc2sc(-c3ccccc3C(N)=O)cc12)c1ccccc1" on Tyrosine-protein kinase Lyn (Homo sapiens) was 16

Recorded inhibition for "COc1cc(CO)ccc1-c1cc2c(N[C@H](CO)c3ccccc3)ncnc2s1" on Tyrosine-protein kinase Lyn (Homo sapiens) was 40

Recorded inhibition for "C#Cc1cccc(Nc2ncnc3sc(-c4ccc(CO)cc4OC)cc23)c1" on Tyrosine-protein kinase Lyn (Homo sapiens) was 13

Recorded inhibition for "C#Cc1cccc(Nc2ncnc3cc(OCCOC)c(OCCOC)cc23)c1" on Tyrosine-protein kinase Lyn (Homo sapiens) was 68

Recorded inhibition for "COc1cc(CO)ccc1-c1cc2c(Nc3ccccc3)ncnc2s1" on Tyrosine-protein kinase Lyn (Homo sapiens) was 24

Recorded inhibition for "COc1cc(CO)ccc1-c1cc2c(N[C@H](C)c3ccccc3)ncnc2s1" on Tyrosine-protein kinase Lyn (Homo sapiens) was 61
